Target: mouse TRPV3-YFP (Mus musculus)
Sequence (Q8K424 1-791): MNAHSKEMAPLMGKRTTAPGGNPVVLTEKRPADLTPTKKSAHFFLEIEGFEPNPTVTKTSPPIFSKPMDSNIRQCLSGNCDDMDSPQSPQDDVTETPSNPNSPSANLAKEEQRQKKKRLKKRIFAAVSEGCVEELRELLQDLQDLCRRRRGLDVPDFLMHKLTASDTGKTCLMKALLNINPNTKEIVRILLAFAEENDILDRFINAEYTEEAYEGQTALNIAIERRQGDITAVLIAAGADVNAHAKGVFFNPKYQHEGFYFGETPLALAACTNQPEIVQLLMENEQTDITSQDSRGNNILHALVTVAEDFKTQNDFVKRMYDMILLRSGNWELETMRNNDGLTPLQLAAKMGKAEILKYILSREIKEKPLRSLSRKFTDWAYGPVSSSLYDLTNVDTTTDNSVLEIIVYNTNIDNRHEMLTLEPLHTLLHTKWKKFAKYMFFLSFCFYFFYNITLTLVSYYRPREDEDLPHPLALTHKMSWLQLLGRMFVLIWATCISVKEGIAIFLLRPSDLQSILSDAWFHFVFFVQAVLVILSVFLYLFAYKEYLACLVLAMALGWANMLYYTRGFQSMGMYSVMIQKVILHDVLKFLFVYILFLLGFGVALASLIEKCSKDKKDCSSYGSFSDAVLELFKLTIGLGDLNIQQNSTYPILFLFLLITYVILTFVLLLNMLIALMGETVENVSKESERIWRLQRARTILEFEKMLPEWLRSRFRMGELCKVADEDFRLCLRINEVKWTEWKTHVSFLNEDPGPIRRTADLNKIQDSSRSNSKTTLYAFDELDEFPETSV
Assay: Calcium imaging of HEK293 cells expressing mouse TRPV3-YFP
Settings: calcium in the extracellular media; read-out: calcium influx EC50
Procedure: All error bars indicate SEM; p values in all subfigures but c represent analysis with one-way ANOVA Bonferroni's post hoc. […] Data analysis of calcium imaging data. Analysis of calcium imaging data was done using a non-linear regression curve fit (Graphpad 4 Prism, San Diego, Calif.). t tests and one way ANOVA were calculated using SPSS (Chicago, Ill.). […] Averaged drug responses over 30 randomly selected cells per coverslip were analyzed with two-tailed unpaired t tests.
measured-attribute: pEC50
Keep it numeric: pEC50 is minus log10 of the concentration in mol/L.

Ask: For the compound shown here, CC(=O)OC1CC/C(C)=C/CC/C(C)=C/CC2(C(C)C)CCC1(C)O2 (stereo not shown) [IA, incensole acetate] , give the reported pEC50.
Reply: 4.80
